Measured kon of individual entries
target-entity: SARS-CoV-2 wild-type RBD (SARS-CoV-2 wild type)
measurement-notes: BLI
stated-conditions: both partners purified
Answer with a number only, understood to be in M⁻¹ s⁻¹.

Some binders with known kon results, for comparison:
- binder: "C092 (antibody, V domains shown, human IgG1) VH: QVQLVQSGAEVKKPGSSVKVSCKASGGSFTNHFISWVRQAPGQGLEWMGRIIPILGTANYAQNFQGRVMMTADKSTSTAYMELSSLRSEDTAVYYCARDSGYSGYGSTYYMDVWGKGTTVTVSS VL: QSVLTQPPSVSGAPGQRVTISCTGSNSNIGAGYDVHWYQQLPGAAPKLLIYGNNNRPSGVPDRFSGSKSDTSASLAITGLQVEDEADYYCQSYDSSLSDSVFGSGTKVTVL"
  measured: 642000
- binder: "C832 (antibody, V domains shown, human IgG1) VH: QVQLVQSGAEVKKPGSSVKVSCKASGGTFSSYSISWVRQAPGQGLEWMGRIIPILGIASYAQKFQGRVTITADKSTSTVYMELTGLRSDDTAVYYCARDRGYSDYGSHYYMDVWGKGTTVTVSS VL: QSVLTQPPSVSGAPGQRVTISCTGSSSNIGAGYDVHWYQQLPGTAPKLLIYINSNRPSGVPDRFSGSKSGTSASLAITGLQAEDEADYYCQSYDSSLSDSVFGGGTKLTVL"
  measured: 387000
- binder: "C091 (antibody, V domains shown, human IgG1) VH: QVQLVQSGAEVKKPGSSVKVSCKASGGTFSSYTISWVRQAPGQGLEWMGRIIPILGIANYAQKFQGRVTITADKSTSTAYMELSSLRSEDTAVYYCARDSGYSGYGSTYYMDVWGKGTTVTVSS VL: QSVLTQPPSVSGAPGQRVTISCTGSSSNIGAGYDVHWYQQLPGTAPKLLIYGNSNRPSGVPDRFSGSKSGTSASLAITGLQAEDEADYYCQSYDSSLSGSVFGTVTKVTVL"
  measured: 346000

Now for the binder whose kon we want.
input: Report kon for C963 (antibody, V domains shown, human IgG1) VH: QVQLVQSGAEVKKPGSSVRVSCKASGGTFSSFTITWVRQAPGQGLEWMGRIIPNLNIPNYAQRFQGRITITAEKSTSTAYLELSSLRSEDTAVYYCARGVGYSGSGSNWYFDLWGRGTLVTVSS VL: QSVLTQPPSVSGAPGQRVTISCTGSSSNIGAGYDVHWYQQLPGTAPKLLISGHINRPSGVPDRFSGSTSGTSASLAITGLQAEDEADYYCQSYDSSLSDSVFGGGTKLTV please.
output: 709000
